- study.target: Polyunsaturated fatty acid lipoxygenase ALOX15 (Homo sapiens, UniProt P16050)
- Sequence (P16050 whole entry): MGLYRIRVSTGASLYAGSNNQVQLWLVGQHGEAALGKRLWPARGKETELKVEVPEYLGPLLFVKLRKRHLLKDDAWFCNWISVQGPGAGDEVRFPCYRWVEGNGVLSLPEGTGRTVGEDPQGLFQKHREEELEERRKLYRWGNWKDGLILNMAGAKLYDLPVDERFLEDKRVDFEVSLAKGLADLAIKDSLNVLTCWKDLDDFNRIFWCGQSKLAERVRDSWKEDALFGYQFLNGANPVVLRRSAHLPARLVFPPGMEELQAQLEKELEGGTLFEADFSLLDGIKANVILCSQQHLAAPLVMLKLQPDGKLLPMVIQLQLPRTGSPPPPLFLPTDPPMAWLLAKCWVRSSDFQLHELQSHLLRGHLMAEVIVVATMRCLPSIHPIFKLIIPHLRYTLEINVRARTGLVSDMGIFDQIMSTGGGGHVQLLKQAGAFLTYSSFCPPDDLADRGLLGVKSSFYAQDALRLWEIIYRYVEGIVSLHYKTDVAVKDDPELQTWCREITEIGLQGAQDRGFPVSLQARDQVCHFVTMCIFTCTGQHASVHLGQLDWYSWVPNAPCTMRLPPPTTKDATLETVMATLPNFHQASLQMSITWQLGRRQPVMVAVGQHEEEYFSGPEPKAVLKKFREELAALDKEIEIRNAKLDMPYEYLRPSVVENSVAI
- method.notes: Inhibition of human 15-LOX-1 using arachidonic acid as substrate
- stated.conditions: read-out: IC50
measure.name: pIC50
The value called pIC50 is obtained by taking minus log10 of the concentration in mol/L.

Task: State recorded pIC50 with Polyunsaturated fatty acid lipoxygenase ALOX15 (Homo sapiens, UniProt P16050), entry O=C(Nc1ccc(F)cc1Cl)c1ccn(S(=O)(=O)c2cccc(C(F)(F)F)c2)n1 , no comment.
Result: 5.71
